Data credit: the supplement of paper PMC6555819

- Tested on: RARb:RXRa (NR concentration 270 nM, RXRa partner concentration 90 nM)
- assay summary: PBM binding z-score (relative to random genomic background probes); higher = stronger binding; sequences stand for … in GC…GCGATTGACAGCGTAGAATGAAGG
Rule: met for PBM binding z-score not less than 1, not met for anything less.

{"columns": ["polymer sequence", "assigned category"],
 "data": [
  ["ATCGAAAGGTCGTGAGTTGAGTATACAGAAAGGC", "met"],
  ["GGAACGAGGACAAGTTGATAGCAGAGTTTGATGG", "met"],
  ["TCGATTAGTTGAAGGGCAACCGACGAGTCCGTTT", "met"],
  ["TAGCCTAGGTCATTGGGCCATTATAGTACGCATC", "met"],
  ["CCGACTGGAGCAGAAAGGTTACCATACCATCCGG", "met"],
  ["TCTATTAGTTGAAGTGCAACCGACGAGTCCGTTT", "not met"]
]}

* * *

- Test system: PPARg:RXRa IVT, anti-PPARg (NR concentration 270 nM, RXRa partner concentration 90 nM)
- assay summary: PBM binding z-score (relative to random genomic background probes); higher = stronger binding; sequences stand for … in GC…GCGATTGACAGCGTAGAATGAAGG
readout type: PBM binding z-score

{"columns": ["polymer sequence", "measured number"],
 "data": [
  ["CGTCCAAGGCCAAAGGTCAGTGAAGAGATGACGG", 3.33],
  ["GCTAGCACGCCATTTGGGTCACTCAATGACGGGC", 1.27],
  ["AATACAGGGTCACTAGGCCAGAATAGGTACGAAT", 5.78],
  ["CTCGAAAGGTCGGTTGATGTGAGTATACGGATAA", 0.641],
  ["TCTATTAGTTGATTAGGGCAACTGAAACAGCGGA", 1.45],
  ["GCTATTAGTTGAAAGGGTAACCGAATGATTCTCG", 0.734],
  ["CGTCAAAGTACAACTAAGGTAACGTAAAGCACGC", 0.863],
  ["ACTATTAGTTGAGACGAGGGCACCCGATAGGTTG", 0.476],
  ["ATATGTAGGTTATAGGGTCATTCAGTTTGCGCAT", 7.16],
  ["CTCGAAAAGTCGTGCTCAGGTGAGTATACCAAAC", 0.391],
  ["TCTAGTAGATCAGCAGGTTAAGAAAGCTGGCCAA", 0.125],
  ["TTACCAAGGTGAAGGTCGGTGATCCCTCTGTAGA", 2.91],
  ["ATATGTAGGTTGTCGGGTCATTCAGTTTGCGCAT", 4.47],
  ["GCACCAAGGTGAATAGGTCGTTGATGAGTAGGCG", 2.2],
  ["ATCGAGAGGTCGAGGTGAGTATAGAGAAAGGGAA", 1.75],
  ["GTACCAAGATGAATAGGTCGTTGATGAGTAGGCG", -0.096],
  ["AGAATGAGGTTACCAAACATCAGGGAAACGCTTG", 3.04],
  ["TTACCAAGATGAAGGTCGTTGATCCCTCTGTAGA", 0.0475],
  ["GATACAGGGTCAGCTAGAGGCCAGTGTATGGAAA", 2.25],
  ["CCTAGCAGGCCAATCTGGGTTACTCAAGGCTTGA", 3.29],
  ["TCATATAGGTAAATGCTAGGTAAAAGTCCGATCT", 2.3],
  ["TATCCAGGGTCAAAGGCCAGAGTACGAATGTCGA", 4.91],
  ["GCTAGTTGGTCAGTAAAAGGTCAGACACCGGTCG", 1.67],
  ["CGTCCAAGGTCATAGGAGGTCAGCGAAGACAGAT", 4.77],
  ["GCTAGTTGGTCAGTAAAAGGTCACAGACCGGTCG", 3.03],
  ["TCATATAGGTAATACCGGTGAAAGTCGGCATCTA", 2.28],
  ["TGAATGAGGTTATAAGCTCAGGGAACGTTGCAAA", 1.28],
  ["CTCGCAAGGTCGGTTGAGGTGAGTATACGGATAA", 0.241],
  ["TTACCAAGGTGAAGGTCGTTGATCCCTCTGTAGA", 3.45],
  ["CCTTACGGGACACTCCAGGTTATAGCATCGGAGT", 0.708],
  ["ATCGAAAGGTCGAAGTTGAGTATACCCACCCGAA", 1.59],
  ["AGAATGAGGTTACAAAAGATCAGGGAAACGCTTG", 3.13],
  ["GCGAATGGGGCAAAGCAGGTTACCATAAGGTTGG", 1.37],
  ["CAGCCTAGGTCAGGGCCAGTCTAGGAGGAACGTT", 1.44],
  ["GCTGCTAGGTCAGTTTGGTCAGCTAACGGGTACG", 2],
  ["AGAACGAGGGCACGCTGAGTTCATAGCAGAGTAG", 3.89],
  ["ATCTCTAAGTAACAAGTTCAGTGAAAGAGAGGAC", 0.166],
  ["TTACCAAGGTGAAGGTCCTTGATCCCTCTGTAGA", 2.67],
  ["TAGCTTAGGTCATTGGGCCAGTATAGTACGCATC", 3.15],
  ["GATACAAGGTCAAGGCCAGAGTACGCGTATTGAT", 4.69],
  ["CGTCCTAGGTCAAAGGTCAGTGAAGAGATGACGG", 5.93],
  ["AGAACGAGGGCACGCTGCGTTGATAGCAGAGTAG", 3.95],
  ["CGTCCAAGGTCCTAGGAGGTCAGTGAAGACAGAT", 0.579],
  ["TCTGCTAGGTCAACGATGGTAAGCTAATCTGCTA", 4.18],
  ["GCTGGGAGGACAAGGTCAGAGCTTTGTCCGTAGA", 0.836],
  ["TCAGACAGGTGAAGGCAACTCAGGTACGCAGTCG", 0.632],
  ["ACTAGCAGGCCAAGTTTGGGTCACTCACACAAAG", 1.38],
  ["ATCGAAAGATCGACGAGGTGAGTATACACCGTTT", 0.27],
  ["GTACCACGGTGAATAGGTCGTTGATGAGTAGGCG", 0.889],
  ["TCTGCTAGGTCAGTTGCTCAGCTAACGAGCTGCC", 2.17],
  ["AGTCAAAGTTCATCTAGCTAACGTAAGATATGCT", 2.41]
]}
